# targetSystem: BSA (bovine albumin serum) (Bos taurus)
# Sequence (P02769 25-607): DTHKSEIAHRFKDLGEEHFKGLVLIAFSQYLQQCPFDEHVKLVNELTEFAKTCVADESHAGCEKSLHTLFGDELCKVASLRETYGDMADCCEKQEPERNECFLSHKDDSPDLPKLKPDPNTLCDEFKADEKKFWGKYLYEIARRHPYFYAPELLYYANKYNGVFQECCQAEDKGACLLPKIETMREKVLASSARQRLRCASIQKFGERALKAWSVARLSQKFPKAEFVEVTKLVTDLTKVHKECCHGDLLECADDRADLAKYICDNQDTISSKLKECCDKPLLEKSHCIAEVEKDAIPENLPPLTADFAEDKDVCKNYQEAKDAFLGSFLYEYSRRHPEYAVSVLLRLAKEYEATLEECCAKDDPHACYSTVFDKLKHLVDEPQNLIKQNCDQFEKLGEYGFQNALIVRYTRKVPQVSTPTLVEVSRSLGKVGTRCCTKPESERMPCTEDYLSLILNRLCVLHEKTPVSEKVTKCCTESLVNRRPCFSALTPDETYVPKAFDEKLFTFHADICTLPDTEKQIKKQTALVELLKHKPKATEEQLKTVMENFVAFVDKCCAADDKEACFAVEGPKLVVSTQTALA
# testDetails: Protein (albumin) denaturation assay
# details: maximum inhibition; compounds tested at 50-200 µg/mL, diclofenac 100 µg/mL
property: % inhibition of albumin denaturation (%)

>>> resultnumber("Cc1cc(C=NNC(=O)c2cc(-c3ccc(Br)cc3)n(-c3ccc(S(N)(=O)=O)cc3)n2)cc(C)c1OCc1ccccc1")
70.87
>>> resultnumber("Cc1cc(C=NNC(=O)c2cc(-c3ccc(Cl)cc3)n(-c3ccc(S(N)(=O)=O)cc3)n2)cc(C)c1OCc1ccccc1")
61.05
>>> resultnumber("NS(=O)(=O)c1ccc(-n2nc(C(=O)NN=Cc3ccc(Cl)cc3O)cc2-c2ccc(Br)cc2)cc1")
67.77
>>> resultnumber("NS(=O)(=O)c1ccc(-n2nc(C(=O)NN=Cc3cccc(Oc4ccccc4)c3)cc2-c2ccc(Cl)cc2)cc1")
63.32
>>> resultnumber("COc1ccc(-c2cc(C(=O)NN=Cc3ccc(Oc4ccccc4)cc3)nn2-c2ccc(S(N)(=O)=O)cc2)cc1")
81.77
